assayExplanation: Rat pharmacokinetic study of DZ2002
Type: in vivo, Sprague-Dawley rats
conditionsUsed: female, Sprague-Dawley, rat, blood, iv, 5 mg/kg
testReadout: MRT

Could you tell me which MRT is on file for `COC(=O)[C@@H](O)CCn1cnc2c(N)ncnc21` ? 9 min

Could you tell me which MRT is on file for Nc1ncnc2c1ncn2CCC(O)C(=O)O (centres unmarked) ? 30.6 min

====

Please respond with reported AUC(0-t) for every item in the list.
assayExplanation: Rat pharmacokinetic study of DZ2002
Type: in vivo, Sprague-Dawley rats
conditionsUsed: male, Sprague-Dawley, rat, blood, po, 5 mg/kg
Don't forget the unit after the number, please.

Could you tell me which AUC(0-t) is on file for `COC(=O)[C@@H](O)CCn1cnc2c(N)ncnc21` ? 0.729 µM·h

Could you tell me which AUC(0-t) is on file for Nc1ncnc2c1ncn2CCC(O)C(=O)O (centres unmarked) ? 3.77 µM·h

====

assayExplanation: Rat pharmacokinetic study of DZ2002
Assay type: in vivo, Sprague-Dawley rats
conditionsUsed: male, Sprague-Dawley, rat, blood, po, 25 mg/kg
testReadout: AUC(0-inf) (µM·h)
Write down the numeric answer in µM·h and omit the unit.

Could you tell me which AUC(0-inf) is on file for Nc1ncnc2c1ncn2CCC(O)C(=O)O (centres unmarked) [DZA] ? 18.4

Could you tell me which AUC(0-inf) is on file for COC(=O)[C@@H](O)CCn1cnc2c(N)ncnc21 [DZ2002] ? 4

====

Please respond with reported AUC(0-t) for every item in the list.
assayExplanation: Rat pharmacokinetic study of DZ2002
Format: in vivo, Sprague-Dawley rats
conditionsUsed: female, Sprague-Dawley, rat, blood, po, 5 mg/kg
Write down the numeric answer in µM·h and omit the unit.

Could you tell me which AUC(0-t) is on file for Nc1ncnc2c1ncn2CCC(O)C(=O)O (centres unmarked) ? 4.27

Could you tell me which AUC(0-t) is on file for `COC(=O)[C@@H](O)CCn1cnc2c(N)ncnc21` ? 0.963

====

assayExplanation: Rat pharmacokinetic study of DZ2002
Type: in vivo, Sprague-Dawley rats
conditionsUsed: male, Sprague-Dawley, rat, blood, iv, 5 mg/kg
Please respond with reported half-life for every item in the list.
Write down the numeric answer in min and omit the unit.

Could you tell me which half-life is on file for Nc1ncnc2c1ncn2CCC(O)C(=O)O (centres unmarked) ? 96.6

Could you tell me which half-life is on file for `COC(=O)[C@@H](O)CCn1cnc2c(N)ncnc21` ? 4.8

====

Please respond with reported half-life for every item in the list.
assayExplanation: Rat pharmacokinetic study of DZ2002
Format: in vivo, Sprague-Dawley rats
conditionsUsed: female, Sprague-Dawley, rat, blood, po, 10 mg/kg
Write down the numeric answer in h and omit the unit.

Could you tell me which half-life is on file for `COC(=O)[C@@H](O)CCn1cnc2c(N)ncnc21` ? 0.54

Could you tell me which half-life is on file for Nc1ncnc2c1ncn2CCC(O)C(=O)O (centres unmarked) ? 3.88

====

Please respond with reported half-life for every item in the list.
assayExplanation: Rat pharmacokinetic study of DZ2002
Assay type: in vivo, Sprague-Dawley rats
conditionsUsed: male, Sprague-Dawley, rat, blood, po, 10 mg/kg

Could you tell me which half-life is on file for Nc1ncnc2c1ncn2CCC(O)C(=O)O (centres unmarked) ? 1.46 h

Could you tell me which half-life is on file for `COC(=O)[C@@H](O)CCn1cnc2c(N)ncnc21` ? 0.68 h

====

assayExplanation: Rat pharmacokinetic study of DZ2002
Type: in vivo, Sprague-Dawley rats
conditionsUsed: female, Sprague-Dawley, rat, blood, po, 10 mg/kg
Please respond with reported AUC(0-t) for every item in the list.
Write down the numeric answer in µM·h and omit the unit.

Could you tell me which AUC(0-t) is on file for Nc1ncnc2c1ncn2CCC(O)C(=O)O (centres unmarked) ? 7.6

Could you tell me which AUC(0-t) is on file for `COC(=O)[C@@H](O)CCn1cnc2c(N)ncnc21` ? 1.18

====

assayExplanation: Rat pharmacokinetic study of DZ2002
Type: in vivo, Sprague-Dawley rats
conditionsUsed: male, Sprague-Dawley, rat, blood, po, 10 mg/kg
testReadout: Cmax

Could you tell me which Cmax is on file for `COC(=O)[C@@H](O)CCn1cnc2c(N)ncnc21` ? 2.36 µM

Could you tell me which Cmax is on file for Nc1ncnc2c1ncn2CCC(O)C(=O)O (centres unmarked) ? 7.03 µM

====

assayExplanation: Rat pharmacokinetic study of DZ2002
Assay type: in vivo, Sprague-Dawley rats
conditionsUsed: female, Sprague-Dawley, rat, blood, po, 25 mg/kg
Please respond with reported MRT for every item in the list.
Write down the numeric answer in h and omit the unit.

Could you tell me which MRT is on file for Nc1ncnc2c1ncn2CCC(O)C(=O)O (centres unmarked) [DZA] ? 2.95

Could you tell me which MRT is on file for COC(=O)[C@@H](O)CCn1cnc2c(N)ncnc21 [DZ2002] ? 0.67

====

assayExplanation: Rat pharmacokinetic study of DZ2002
Assay type: in vivo, Sprague-Dawley rats
conditionsUsed: male, Sprague-Dawley, rat, blood, iv, 5 mg/kg
testReadout: AUC(0-inf) (µM·h)
Write down the numeric answer in µM·h and omit the unit.

Could you tell me which AUC(0-inf) is on file for COC(=O)[C@@H](O)CCn1cnc2c(N)ncnc21 [DZ2002] ? 0.504

Could you tell me which AUC(0-inf) is on file for Nc1ncnc2c1ncn2CCC(O)C(=O)O (centres unmarked) [DZA] ? 5.03

====

assayExplanation: Rat pharmacokinetic study of DZ2002
Type: in vivo, Sprague-Dawley rats
conditionsUsed: female, Sprague-Dawley, rat, blood, po, 5 mg/kg
testReadout: Cmax (µM)
Write down the numeric answer in µM and omit the unit.

Could you tell me which Cmax is on file for `COC(=O)[C@@H](O)CCn1cnc2c(N)ncnc21` ? 2.72

Could you tell me which Cmax is on file for Nc1ncnc2c1ncn2CCC(O)C(=O)O (centres unmarked) ? 6.49

====

Please respond with reported Cmax for every item in the list.
assayExplanation: Rat pharmacokinetic study of DZ2002
Format: in vivo, Sprague-Dawley rats
conditionsUsed: male, Sprague-Dawley, rat, blood, po, 25 mg/kg
Don't forget the unit after the number, please.

Could you tell me which Cmax is on file for `COC(=O)[C@@H](O)CCn1cnc2c(N)ncnc21` ? 4.02 µM

Could you tell me which Cmax is on file for Nc1ncnc2c1ncn2CCC(O)C(=O)O (centres unmarked) ? 16 µM

====

assayExplanation: Rat pharmacokinetic study of DZ2002
Assay type: in vivo, Sprague-Dawley rats
conditionsUsed: both, Sprague-Dawley, rat, blood, po
testReadout: half-life

Could you tell me which half-life is on file for COC(=O)[C@@H](O)CCn1cnc2c(N)ncnc21 [DZ2002] ? 0.3 to 0.9 h

Could you tell me which half-life is on file for Nc1ncnc2c1ncn2CCC(O)C(=O)O (centres unmarked) [DZA] ? 1.3 to 5.1 h

====

Please respond with reported Cmax for every item in the list.
assayExplanation: Rat pharmacokinetic study of DZ2002
Format: in vivo, Sprague-Dawley rats
conditionsUsed: female, Sprague-Dawley, rat, blood, po, 25 mg/kg
Write down the numeric answer in µM and omit the unit.

Could you tell me which Cmax is on file for `COC(=O)[C@@H](O)CCn1cnc2c(N)ncnc21` ? 8.49

Could you tell me which Cmax is on file for Nc1ncnc2c1ncn2CCC(O)C(=O)O (centres unmarked) ? 19.8

====

Please respond with reported AUC(0-inf) for every item in the list.
assayExplanation: Rat pharmacokinetic study of DZ2002
Assay type: in vivo, Sprague-Dawley rats
conditionsUsed: female, Sprague-Dawley, rat, blood, iv, 5 mg/kg
Write down the numeric answer in nM·h and omit the unit.

Could you tell me which AUC(0-inf) is on file for Nc1ncnc2c1ncn2CCC(O)C(=O)O (centres unmarked) ? 4800

Could you tell me which AUC(0-inf) is on file for `COC(=O)[C@@H](O)CCn1cnc2c(N)ncnc21` ? 680

====

assayExplanation: Rat pharmacokinetic study of DZ2002
Format: in vivo, Sprague-Dawley rats
conditionsUsed: male, Sprague-Dawley, rat, blood, po, 5 mg/kg
Please respond with reported Tmax for every item in the list.
Write down the numeric answer in min and omit the unit.

Could you tell me which Tmax is on file for `COC(=O)[C@@H](O)CCn1cnc2c(N)ncnc21` ? 11.4

Could you tell me which Tmax is on file for Nc1ncnc2c1ncn2CCC(O)C(=O)O (centres unmarked) ? 19.8

====

assayExplanation: Rat pharmacokinetic study of DZ2002
Format: in vivo, Sprague-Dawley rats
conditionsUsed: female, Sprague-Dawley, rat, blood, po, 10 mg/kg
testReadout: Tmax (min)
Write down the numeric answer in min and omit the unit.

Could you tell me which Tmax is on file for `COC(=O)[C@@H](O)CCn1cnc2c(N)ncnc21` ? 8.4

Could you tell me which Tmax is on file for Nc1ncnc2c1ncn2CCC(O)C(=O)O (centres unmarked) ? 16.8

====

assayExplanation: Rat pharmacokinetic study of DZ2002
Format: in vivo, Sprague-Dawley rats
conditionsUsed: female, Sprague-Dawley, rat, blood, po, 25 mg/kg
testReadout: AUC(0-inf) (µM·h)
Write down the numeric answer in µM·h and omit the unit.

Could you tell me which AUC(0-inf) is on file for `COC(=O)[C@@H](O)CCn1cnc2c(N)ncnc21` ? 4.02

Could you tell me which AUC(0-inf) is on file for Nc1ncnc2c1ncn2CCC(O)C(=O)O (centres unmarked) ? 18.4

Where do these numbers come from? They come from paper PMC6355468.
